# protein stability index annotations
B1: TMEM106C (parent)
chain: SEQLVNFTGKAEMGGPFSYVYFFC

variants of: B1; assay: protein stability index of a GFP-peptide fusion (GPS, HEK-293T) (PSI 1-6); higher = more stable; conditions: c terminus: a fixed tail appended;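 further: lentivirally expressed fusions sorted by FACS into six bins by GFP to DsRed ratio, PSI derived from sequencing read proportions per bin multiplied by bin number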
// response body must contain only the number

Variant Descriptor | protein stability index
K10Y | 2.5
F22A | 2.62
G15F | 3.12

Noted for V5F : its protein stability index reads 2.76

Noted for F22H : its protein stability index reads 3.04

Noted for G14V : its protein stability index reads 3.73

Noted for S1D : its protein stability index reads 1.62
